// reported 100 nM Ag Bound for each item listed
# system.tested: T1, D2 domain of human IL2Rγ extracellular domain expressed with a C-terminal myc-myc-hexahistidine tag (human)
# T1 construct: also called human IL2Rγ domain 2
# T1 chain: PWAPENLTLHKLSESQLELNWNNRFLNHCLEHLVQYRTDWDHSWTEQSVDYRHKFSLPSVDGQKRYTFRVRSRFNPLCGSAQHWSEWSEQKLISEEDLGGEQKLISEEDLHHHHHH
# method.summary: SPR, mAb captured on anti-hFc, 25 C
Value expressed in RU; do not type the unit.

Worked set:
Which value of 100 nM Ag Bound has been reported for H4H13541P (antibody, human IgG4 S228P, kappa, V domains shown, human IgG4) VH: EVQLVESGGGVVRPGGSLRLSCAASGFIFDDYDMSWVRQPPGRGLEWVSGIDWFGGTRGYADSMKGRFTISRDNAKNSLYLQMNSLRVEDTAFYYCARGGAIVGAVTPFDYWGQGTLVTVSS VL: DIQMTQSPSSLSASVGNRVTLSCRASQSINTYLSWYQQRPGKAPKLLIYAASSLQSGVPSRFSGSGAGTDFTLTISSLQPEDFATYYCQQSYSAPLTFGGGTKVEIKR in the records?
10

Which value of 100 nM Ag Bound has been reported for H4H12890P (antibody, human IgG4 S228P, kappa, V domains shown, human IgG4) VH: EVQLVESGGGLVQPGGSLRLSCAASGFTFNNYAMHWVRQAPGKGLEYVSSISSSGGSTYYEDSVKGRFTISRDNSKNTLYLQMGSLRAEDMAVYYCARSFYGSGTYYDTFDMWGQGTMVTVSS VL: DIQMTQSPSSLSASIGDRVTITCRASQSISRYLNWYQQKPGKAPKLLIYAASSLQSGVPSRFSASGSGTDFTLTISSLQPEDFATYYCQQSYSTPFTFGQGTKLEIKR in the records?
-1

Which value of 100 nM Ag Bound has been reported for H4H12863P (antibody, human IgG4 S228P, kappa, V domains shown, human IgG4) VH: QVQLVESGGGVVQPGRSLRLSCTASGFTFRSYDMYWVRQAPGKGLEWVSVITYDGNNKYYADSVKGRFTISRDNSKNTLFLQMSSLRPEDTAVYYCAKRGLIWVGESFDYWGQGTLVTVSS VL: DIQMTQSPSTLSASVGDRVTITCRASQSINSWLAWYQQKPGKAPNLLIYKASSLESGVPSRFSGSGSGTEFTLTISSLQPDDFATYYCQQYKSYSWTFGQGTKVEIKR in the records?
0

Others:
Which value of 100 nM Ag Bound has been reported for H4H12886P (antibody, human IgG4 S228P, kappa, V domains shown, human IgG4) VH: EVQLVESGGGLVKPGGSLRLSCAASGFTFSTAWMSWVRQSPGRGLEWVGRMKSKTDGGTTFYAAPVKGRFTISRDDSKNTLYLQMNSLKTEDTAVYYCTTGLVPAFYKYYGVDVWGQGTTVTVSS VL: DIQMTQSPSSLSASVGDRITITCQASQDITNYLNWYQQKPGKAPNLLIYDASNLVTGVPSRFSGSGSGTDFTFTILSLQPEDIATYYCQQYDSLLTFGPGTKVDIKR in the records?
35

Which value of 100 nM Ag Bound has been reported for H4H12889P (antibody, human IgG4 S228P, kappa, V domains shown, human IgG4; also called REGN7257) VH: EVQLVESGGGLVQPGGSLRLSCAASGFIFSSYEMHWVRQAPGKGLEWISYISSSGTTIYYADSVKGRFTISRDNAKNSLYLHMNSLRAEDTAVYYCTRARITGTFDVFDIWGQGTMVTVSS VL: DIQMTQSPSSLSASVGDRVTITCRASQSISSYLNWYQQKPGKAPKLLIFAASNLQSGVPSRFSGSRSGTDFTLTISSLQPEDFATYYCQQNYNIPYTFGQGTKLEIKR in the records?
0
